All values here come from patent US8227492B2.

- Test system: human plasma
- ASSAY DETAILS: Prothrombin time doubling concentration (PTCT2) using human plasma
- Format: biochemical
OBSERVED PROPERTY: PTCT2 (Conc. required to double the prothrombin time using human plasma) (µM)
Please respond with the number in µM and leave the unit unwritten.

Worked cases, answers included:
> print(dat)
                                   compound  units.of.measure  meas.value
1  CCN(CC)CCN=S(C)(=O)c1ccc(C(=O)Nc2ccc(Cl)cc2C(=O)Nc2ccc(Cl)cn2)cc1 (stereo not drawn) [Example 74]                µM        1.23
2  CS(=N)(=O)c1ccccc1-c1ccc(C(=O)Nc2ccc(Cl)cc2C(=O)Nc2ccc(Cl)cn2)cc1 (stereo not drawn) [Example 4]                µM         4.1
3  COc1cc(Cl)cc(C(=O)Nc2ccc(Cl)cn2)c1NC(=O)c1ccc(-c2ccccc2S(C)(=N)=O)cc1 (stereo not drawn) [Example 5]                µM        0.69
4  CCN(CC)CC(=O)N=S(C)(=O)c1ccc(C(=O)Nc2ccc(Cl)cc2C(=O)Nc2ccc(Cl)cn2)cc1 (stereo not drawn) [Example 42]                µM         0.7
5  CS(=O)(=NC(=O)CN1CCCC1)c1ccc(C(=O)Nc2ccc(Cl)cc2C(=O)Nc2ccc(Cl)cn2)cc1 (stereo not drawn) [Example 50]                µM        0.68

Query: Answer with reported PTCT2 (Conc. required to double the prothrombin time using human plasma) of CS(=O)(=NCCN1CCCC1)c1ccc(C(=O)Nc2ccc(Cl)cc2C(=O)Nc2ccc(Cl)cn2)cc1 (stereo not drawn) [Example 75]
Reply: 0.98

Query: Answer with reported PTCT2 (Conc. required to double the prothrombin time using human plasma) of COc1ccc(NC(=O)c2ccc(S(C)(=O)=NC(=O)CN(C)C)cc2)c(C(=O)Nc2ccc(Cl)cn2)c1 (stereo not drawn) [Example 40]
Reply: 1.2

Query: Answer with reported PTCT2 (Conc. required to double the prothrombin time using human plasma) of CN(C)CCN=S(C)(=O)c1ccc(C(=O)Nc2ccc(Cl)cc2C(=O)Nc2ccc(Cl)cn2)cc1 (stereo not drawn) [Example 76]
Reply: 1.14

Query: Answer with reported PTCT2 (Conc. required to double the prothrombin time using human plasma) of CN(C)CC(=O)N=S(C)(=O)c1ccccc1-c1ccc(C(=O)Nc2ccc(Cl)cc2C(=O)Nc2ccc(Cl)cn2)cc1 (stereo not drawn) [Example 41]
Reply: 1.9
